Target: UniProtKB Q01959
Sequence (Q01959 whole entry, species assumed): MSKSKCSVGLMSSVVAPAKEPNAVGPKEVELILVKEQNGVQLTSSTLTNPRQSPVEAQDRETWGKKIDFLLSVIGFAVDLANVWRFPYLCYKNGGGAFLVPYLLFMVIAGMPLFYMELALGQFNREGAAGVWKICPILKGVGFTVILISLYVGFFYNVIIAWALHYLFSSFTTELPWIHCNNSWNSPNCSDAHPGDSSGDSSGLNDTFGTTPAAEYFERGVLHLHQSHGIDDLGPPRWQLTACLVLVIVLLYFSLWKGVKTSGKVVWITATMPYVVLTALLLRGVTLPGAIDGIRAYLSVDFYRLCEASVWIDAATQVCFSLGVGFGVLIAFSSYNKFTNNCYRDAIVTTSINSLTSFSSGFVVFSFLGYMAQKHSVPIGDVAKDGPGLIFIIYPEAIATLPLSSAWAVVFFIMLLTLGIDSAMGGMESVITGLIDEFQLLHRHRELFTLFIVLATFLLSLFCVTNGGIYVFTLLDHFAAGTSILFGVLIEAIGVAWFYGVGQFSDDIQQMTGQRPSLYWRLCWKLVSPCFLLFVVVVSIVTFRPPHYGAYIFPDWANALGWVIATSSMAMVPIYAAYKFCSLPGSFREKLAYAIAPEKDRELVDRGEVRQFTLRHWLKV
Assay: QSAR model predicted IC50, DAT
Conditions: ratio = 1/DAT IC50:1/SERT IC50, from predicted IC50

{"molecule": "c1cc2c(cc1C[C@H]1CCCN1)OCO2 [(R)-I]", "DAT/SERT (calculated)": 0.022}
{"molecule": "c1cc2c(cc1C[C@@H]1CCCN1)OCO2 [(S)-I]", "DAT/SERT (calculated)": 0.043}
{"molecule": "CN[C@@H](C)Cc1ccc2c(c1)OCO2 [S-MDMA, reference compound]", "DAT/SERT (calculated)": 0.383}
{"molecule": "CN[C@H](C)Cc1ccc2c(c1)OCO2 [R-MDMA, reference compound]", "DAT/SERT (calculated)": 0.010}
